# reported Percent Effect; entries follow
Molecular target: AMP-activated protein kinase, AMPK (Homo sapiens) (UniProt P54646+O43741+P54619+Q9UGJ0+Q9Y478+Q13131+Q9UGI9)
Test: AMP-dependent Kinase enzyme assay. An in vitro enzyme assay that detects ADP turnover that is directly proportional to AMPK activity. This uses naive AMPK that is activated during the assay with MK-8722
Type: functional
Parameters: scale not given: direction of the effect not stated beside the values
Settings: 30 µM
Give the quantity in %, number only.

Answered cases to consult:
compound: COC(=O)CCNC(=O)C1CC(=O)N(C2CCCC2)C1 (centres undefined)
value.units: %
Percent Effect: -0.395
--
compound: Cc1occc1C(=O)N1CCCC2(CCN(CCN3CCCC3)C2=O)C1 (centres undefined)
value.units: %
Percent Effect: -1.22
--
compound: CCN(CCn1cccn1)Cc1nc(-c2ccccc2F)oc1C
value.units: %
Percent Effect: -5.26
--
compound: CCOc1ccnc(N2CCN(C(=O)c3cccc(C#N)c3)CC2)n1
value.units: %
Percent Effect: -3.41
--
compound: CCOCCCNc1nc(O)cc(C2CC(=O)N(C)C2)n1 (centres undefined)
value.units: %
Percent Effect: -1.4
--
compound: COCc1ncn2c1CN(C(=O)C1CC=CC1)CC2
value.units: %
Percent Effect: -2.21
--
compound: CN(Cc1nnc(C2CC2)n1C)C1CCN(Cc2ccc(F)cc2)C1 (centres undefined)
value.units: %
Percent Effect: -8.58
--
compound: CN1CCN(Cc2cnc3n2CCN(Cc2cccs2)C3)CC1
value.units: %
Percent Effect: -2.7

From here, focus on the item given below.
Bench note: what Percent Effect did CCN1CC2(CCC1=O)CCN(C(=O)c1ccc(Cl)cc1O)CC2 show?
-4.82
